I'd be grateful if you could share measured selectivity ratio at 2 min for these entries.
# Tested System: OCT3 (Homo sapiens, UniProt O75751)
# Sequence (O75751 1-556): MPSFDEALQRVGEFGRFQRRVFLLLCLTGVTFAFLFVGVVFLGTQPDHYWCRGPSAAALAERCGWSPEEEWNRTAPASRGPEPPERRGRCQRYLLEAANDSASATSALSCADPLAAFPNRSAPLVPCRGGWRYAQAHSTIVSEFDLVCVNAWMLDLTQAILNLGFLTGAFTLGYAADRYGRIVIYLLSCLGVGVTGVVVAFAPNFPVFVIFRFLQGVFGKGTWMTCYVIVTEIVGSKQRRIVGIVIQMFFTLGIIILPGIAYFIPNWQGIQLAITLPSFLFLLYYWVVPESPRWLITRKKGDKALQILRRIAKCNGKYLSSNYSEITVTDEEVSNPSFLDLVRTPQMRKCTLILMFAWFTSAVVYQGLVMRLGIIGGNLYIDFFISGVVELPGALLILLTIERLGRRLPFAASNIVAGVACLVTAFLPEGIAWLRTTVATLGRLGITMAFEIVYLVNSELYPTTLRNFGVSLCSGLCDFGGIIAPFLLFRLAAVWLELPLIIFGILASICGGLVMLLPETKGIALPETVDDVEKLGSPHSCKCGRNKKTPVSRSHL
# Experimental Protocol: Stereoselective uptake into OCT3-overexpressing HEK293 cells;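 note: intracellular accumulation in HEK293 cells measured by chiral HPLC-MS/MS after a 2 min substrate exposure at 37 °C, uptake normalized to total protein (bicinchoninic acid assay)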
# Condition Label: human
Numbers only.

Molecule: CNCC(O)c1ccc(O)c(OC)c1 (single isomer, unassigned)
Measure Name: selectivity ratio at 2 min
Number: 1
--
Molecule: NCC(O)c1cccc(O)c1 (single isomer, unassigned)
Measure Name: selectivity ratio at 2 min
Number: 3.32
--
Molecule: CNC[C@H](O)c1ccc(O)cc1 [(R)-Synephrine]
Measure Name: selectivity ratio at 2 min
Number: 1.06
--
Molecule: CNC[C@@H](O)c1ccc(O)cc1 [(S)-Synephrine]
Measure Name: selectivity ratio at 2 min
Number: 1.06
--
Molecule: COc1cc(C(O)CN)ccc1O (single isomer, unassigned)
Measure Name: selectivity ratio at 2 min
Number: 1.12

Batch request: selectivity ratio at 2 min per item, same order as input.
1. CNC[C@H](O)c1cccc(O)c1 [(R)-Phenylephrine]
2. CNC[C@@H](O)c1cccc(O)c1 [(S)-Phenylephrine]

Result:
2.79
2.79
